# Test system: NCI-H460 lung
# Test Details: NCI-60 one-dose screen, 48 h (100 = growth as untreated, 0 = no growth, -100 = all killed)
# Condition Set: 10 µM unless noted
The panel holds about 83,000 compounds, 20% with a hit somewhere; the sample as a whole holds those more often.
Mark TRUE only when growth stays strictly below 30%. Values equal to the cut-off are FALSE.

See these solved cases before continuing.
INSERT INTO assay_data (compound, class_assignment) VALUES
  ('CC(C)=CCc1c(O)c(C(=O)CC(C)C)c(O)c2c(-c3ccccc3)cc(=O)oc12', 'TRUE'),
  ('O=C(O)C(O)C(O)C1[O][Sb]([c]2ccc([N+](=O)[O-])cc2)[O]C1CO (centres undefined)', 'FALSE'),
  ('C/C(=C\c1ccn(-c2ccc(N)c(F)c2)n1)[C@@H]1C[C@@H]2O[C@]2(C)CCC[C@H](C)[C@H](O)[C@@H](C)C(=O)C(C)(C)[C@@H](O)CC(=O)O1', 'TRUE'),
  ('CC12CC(=O)C3(SC#N)C(CCC4=CC(=O)CCC43C)C1CCC2=O (centres undefined)', 'FALSE');

Lookup: Field: below-cutoff. Rule: recorded growth strictly less than 30%. Subject: NC(=S)c1cn(C2OC(CO)C(O)C2O)c2ncnc(N)c12 (centres undefined)
Found: TRUE

Lookup: Field: below-cutoff. Rule: recorded growth strictly less than 30%. Subject: `O=[N+]([O-])c1cc([N+](=O)[O-])c(Cl)cc1Cl`
Found: TRUE

Lookup: Field: below-cutoff. Rule: recorded growth strictly less than 30%. Subject: `CCNc1nc(Cl)nc(NCC)n1`
Found: FALSE

Lookup: Field: below-cutoff. Rule: recorded growth strictly less than 30%. Subject: O=[N+]([O-])c1ccc([Se]C2CCCCC2Cl)c([N+](=O)[O-])c1 (centres undefined)
Found: FALSE

Lookup: Field: below-cutoff. Rule: recorded growth strictly less than 30%. Subject: `O=[N+]([O-])c1cc([N+](=O)[O-])c(Nn2c3ccccc3c3ccccc32)c([N+](=O)[O-])c1`
Found: TRUE

----------
Assign growth to each entry below.
# Test system: OVCAR-3 ovarian
# Test Details: NCI-60 one-dose screen, 48 h (100 = growth as untreated, 0 = no growth, -100 = all killed)
# Condition Set: 10 µM unless noted
About 83,000 compounds went through this panel and 20% of them were active in at least one assay; those are over-represented in the sample as a whole.
Numbers only, in %.

INSERT INTO assay_data (molecule, unit_descriptor, value) VALUES
  ('CC[C@H](C)[C@H](NC(=O)C12C3C4C1C1C2C3C41NC(C)=O)C(=O)N(C)[C@H](C[C@@H](OC(C)=O)c1nc(C(=O)N[C@@H](Cc2ccccc2)C[C@H](C)C(=O)OC)cs1)C(C)C (stereo partly drawn)', '%', -33.8);

Batch request: growth for each of the following molecules.
1. ClCCN(CCCl)c1nc(Cl)c(C2CC(c3ccccc3)=NN2c2cc(Cl)cc(Cl)c2)s1 (stereo not drawn)
2. CCC[CH2][Sn]([CH2]CCC)([CH2]CCC)[O]c1ccc(Cl)cc1Cl
3. CC1(C)[C@H](O)[C@H](F)C[C@@]2(C)Oc3ccc(C(=O)Nc4ccc5c(c4)NC(=O)C54CCN(CCCCC#N)CC4)cc3C[C@H]12

Found:
103
-100
61.3

Batch request: growth for each of the following molecules.
1. CC(=O)O[C@H](C[C@H](C(C)C)N(C)C(=O)[C@@H](NC(=O)[C@H]1CCCCN1C)C(C)C)c1nc(C(=O)N[C@@H](Cc2ccccc2)C[C@H](C)C(=O)O)c(C(C)C)s1
2. COc1ccc(Nc2ccc([N+](=O)[O-])cc2[N+](=O)[O-])cc1CN(CCCl)CCCl

Found:
-28.1
20

Batch request: growth for each of the following molecules.
1. COc1ccc2c(c1)c(-c1nc(-c3c[nH]c4ncccc34)cs1)cn2CCN1CCOCC1
2. COc1cccc(/C=C/[N+](=O)[O-])c1
3. Fc1cccc(NCOOC2(OOCNc3cccc(F)c3)CCCCC2)c1
4. Nc1nc([Se])c2ncn(C3OC(CO)C(O)C3O)c2n1 (stereo not drawn)

Found:
[59, 75.2, 99.3, 104]

Batch request: growth for each of the following molecules.
1. Cc1cc(N(CCCl)CCCl)ccc1C=Nc1ccccc1-c1ccccc1
2. CCCCCCCC[n+]1ccc2ccccc2c1
3. CC12CCC3C(CCC4=CC(=O)CCC43CF)C1CCC2=O (stereo not drawn)
4. COC(=O)CCc1c[nH]c2ccc(N(CCCl)CCCl)cc12
5. OCc1ccc2c(c1)OCO2
6. COc1ccc(C2=N[C@@H](Cc3ccccc3)C(=O)Nc3ccsc32)cc1
7. COC(=O)[C@@H](C)C[C@H](Cc1ccccc1)NC(=O)c1csc([C@@H](C[C@H](C(C)C)N(C)C(=O)[C@H](C)NC(=O)[C@H]2CCCCN2C)OC(C)=O)n1

Found:
[88.3, 50.2, 119, 80.3, 107, 3.83, -0.67]

Lookup: # return recorded growth for entry `COc1ccc(S(=O)(=O)Nc2c(/C=C\c3cc(OC)c(OC)c(OC)c3)ccc(OC)c2O)cc1OC`
Found: -20.9

----------
# Tested on: NCI-H460 lung
# Test Details: NCI-60 one-dose screen, 48 h
# Condition Set: 10 µM unless noted
About 83,000 compounds went through this panel and 20% of them were active in at least one assay; those are over-represented in the sample as a whole. Active and inactive are the calls of the source. The calls were made as follows: active = growth percent below 10; inactive = the rest.
API: response.call in T for active, F for inactive

INSERT INTO results (compound, study_system, class_assignment) VALUES
  ('Clc1ccc(CO/N=C(\Cn2ccnc2)c2ccc(Cl)cc2Cl)c(Cl)c1', 'NCI-H460 lung', 'T');

Lookup: Returns: the outcome recorded for `COc1ccc(NC([Se])=NC23CC4CC(CC(C4)C2)C3)cc1` in this assay.
Found: T

Lookup: Returns: the outcome recorded for `COC(=O)[C@@H](C)C[C@H](Cc1ccccc1)NC(=O)c1csc([C@@H](C[C@H](C(C)C)N(C)C(=O)[C@@H](NC(=O)C23CC(NC(C)=O)(C2)C3)C2CC2)OC(C)=O)n1` in this assay.
Found: F

----------
# Tested on: CAKI-1 renal
# Test Details: NCI-60 one-dose screen, 48 h (100 = growth as untreated, 0 = no growth, -100 = all killed)
# Condition Set: 10 µM unless noted
Compounds without any hit were thinned out: in the full panel of roughly 83,000, 20% have a hit.
Mark Criterion met only when growth stays strictly below 40%. Values equal to the cut-off are Criterion not met.

Lookup: Field: below-cutoff. Rule: recorded growth strictly less than 40%. Subject: `CCOc1ccccc1C(=O)OCC(Cl)(Cl)Cl`
Found: Criterion not met

Lookup: Field: below-cutoff. Rule: recorded growth strictly less than 40%. Subject: `ClCCN(CCCl)c1ccc(-n2cnc3c(Cl)ncnc32)cc1`
Found: Criterion met

Lookup: Field: below-cutoff. Rule: recorded growth strictly less than 40%. Subject: `COc1ccc(/C=C\c2cc(OC)c(OC)c(OC)c2)cc1NC(=O)/C=C/c1ccc(OC)c(OC)c1`
Found: Criterion not met

Lookup: Field: below-cutoff. Rule: recorded growth strictly less than 40%. Subject: CCN(CC)c1ccc2c(c1)OC(N)=C(C#N)C2c1cc(OC)c2c(c1)OCO2 (centres undefined)
Found: Criterion met

Lookup: Field: below-cutoff. Rule: recorded growth strictly less than 40%. Subject: `CN1C(=O)C(=Cc2cn(Cc3ccccc3)c3ccccc23)C(=O)N(C)C1=O`
Found: Criterion not met

Lookup: Field: below-cutoff. Rule: recorded growth strictly less than 40%. Subject: `CC(C)=CCC/C(C)=C/C=N\N=C(/N)N[N+](=O)[O-]`
Found: Criterion not met

Lookup: Field: below-cutoff. Rule: recorded growth strictly less than 40%. Subject: `ClCCN(CCCl)c1ccc(/C=N/Nc2ncnc3nc[nH]c23)cc1`
Found: Criterion not met

Lookup: Field: below-cutoff. Rule: recorded growth strictly less than 40%. Subject: `CN(CCCCN(C)CCOS(C)(=O)=O)CCOS(C)(=O)=O`
Found: Criterion met

Lookup: Field: below-cutoff. Rule: recorded growth strictly less than 40%. Subject: `CCOC(=O)[C@@H](C)C[C@H](Cc1ccccc1)NC(=O)c1csc([C@@H](C[C@H](C(C)C)N(C)C(=O)[C@@H](NC(=O)[C@H]2C[C@H](O)CCN2C)C(C)C)OC(C)=O)n1`
Found: Criterion met

Lookup: Field: below-cutoff. Rule: recorded growth strictly less than 40%. Subject: `COc1ccc(S(=O)(=O)Nc2c(/C=C\c3cc(OC)c(OC)c(OC)c3)ccc(OC)c2O)cc1OC`
Found: Criterion met

Lookup: Field: below-cutoff. Rule: recorded growth strictly less than 40%. Subject: NC(=O)C(Br)c1ccccc1 (centres undefined)
Found: Criterion met

Lookup: Field: below-cutoff. Rule: recorded growth strictly less than 40%. Subject: `COc1ccc(/C(C)=C(\c2ccc(OCCN3CCOCC3)cc2)c2ccc(OC(=O)Cc3ccccc3)cc2)cc1`
Found: Criterion not met

Lookup: Field: below-cutoff. Rule: recorded growth strictly less than 40%. Subject: `COc1ccc(NC([Se])=NC23CC4CC(CC(C4)C2)C3)cc1`
Found: Criterion met
